Assay: Stability test in an aqueous solution
Format: physicochemical
Settings: physiological saline; 7 days, 25° C., 10 μg/ml in physiological sodium chloride solution; read-out: Remaining ratio 7 days
Description: A test compound was dissolved in ethanol to a concentration of 1 mg/ml. Then, it was diluted with a physiological sodium chloride solution to obtain a solution having a concentration of 10 μg/ml. The solution was stored at 25° C., and the remaining ratio of the test compound was measured as time passed. The remaining ratio was quantitatively analyzed by an internal standard (methyl benzoate) method using high performance liquid chromatography (Shimadzu LC9A, SPC-6AU; Milipore 805-DS). […]
recorded_endpoint: remaining at 168 h (%)
Write the number in % without appending the unit.

Example cases with answers are listed next.
CCCC[C@H](C)C[C@@H](O)/C=C/[C@@H]1[C@@H]2[C@H](C[C@H]1O)O/C(=C\CCCC(=O)O)C2(F)F :: 100
CCCCC[C@H](O)C#C[C@@H]1[C@@H]2[C@H](C[C@H]1O)O/C(=C\CCCC(=O)O)C2(F)F [Compound 31, reference compound] :: 99.5

Any idea what its remaining at 168 h is? The molecule is CCC#CCC(C)[C@@H](O)/C=C/[C@@H]1[C@@H]2[C@H](C[C@H]1O)O/C(=C\CCCC(=O)O)C2(F)F (stereo partly drawn)
101

Any idea what its remaining at 168 h is? The molecule is `Cc1cccc(C[C@@H](O)/C=C/[C@@H]2[C@@H]3[C@H](C[C@H]2O)O/C(=C\CCCC(=O)O)C3(F)F)c1`
99.1

Any idea what its remaining at 168 h is? The molecule is CCC#CCC(C)[C@H](O)/C=C/[C@@H]1[C@@H]2[C@H](C[C@H]1O)O/C(=C\CCCC(=O)O)C2(F)F (stereo partly drawn)
98.9

Any idea what its remaining at 168 h is? The molecule is `CCCC[C@H](C)C[C@H](O)/C=C/[C@@H]1[C@@H]2[C@H](C[C@H]1O)O/C(=C\CCCC(=O)O)C2(F)F`
102

---

assay: Stability test in an aqueous solution; format: physicochemical; conditions: physiological saline; 20 days, 25° C., 10 μg/ml in physiological sodium chloride solution; read-out: Remaining ratio 20 days
recorded_endpoint: remaining at 480 h (%)
Write the number in % without appending the unit.

CCC#CCC(C)[C@@H](O)/C=C/[C@@H]1[C@@H]2[C@H](C[C@H]1O)O/C(=C\CCCC(=O)O)C2(F)F (some centres unmarked) :: 99.8
CCCC[C@H](C)C[C@H](O)/C=C/[C@@H]1[C@@H]2[C@H](C[C@H]1O)O/C(=C\CCCC(=O)O)C2(F)F :: 96.8
CCCCC[C@H](O)C#C[C@@H]1[C@@H]2[C@H](C[C@H]1O)O/C(=C\CCCC(=O)O)C2(F)F [Compound 31, reference compound] :: 97

Would you kindly look at the next entry?
Any idea what its remaining at 480 h is? The compound is `CCCCC[C@H](O)/C=C/[C@@H]1[C@@H]2[C@H](C[C@H]1O)O/C(=C\CCCC(=O)O)C2(F)F`
97.2

---

tested on: human platelets; assay: Platelet aggregation inhibitory activities in vitro (ADP-induced, human platelet-rich plasma); assay type: cell-based; conditions: Homo sapiens, Platelet; solution immediately after dissolving; ADP final concentration 4 μM; 37° C.; read-out: IC50 Immediately after preparation
IC50: recorded values
Write the number in µg/mL without appending the unit.

CCCC[C@H](C)C[C@@H](O)/C=C/[C@@H]1[C@@H]2[C@H](C[C@H]1O)O/C(=C\CCCC(=O)O)C2(F)F :: 0.059
CCC#CCC(C)[C@@H](O)/C=C/[C@@H]1[C@@H]2[C@H](C[C@H]1O)O/C(=C\CCCC(=O)O)C2(F)F (stereo partly shown) :: 0.027
CCC#CC[C@H](C)[C@H](O)/C=C/[C@@H]1[C@@H]2[C@H](C[C@H]1O)O/C(=C\CCCC(=O)O)C2(F)F :: 0.00038

Would you kindly look at the next entry?
Any idea what its IC50 is? The compound is CCCCC[C@H](O)/C=C/[C@@H]1[C@H]2C/C(=C/CCCC(=O)O)O[C@H]2C[C@H]1O [PGI2 Na, reference compound]
0.0021
